- testTarget: LXRa:RXRa (Homo sapiens, UniProt Q13133;P19793 full;full)
- Sequence (Q13133 whole entry, chain 1 of 2): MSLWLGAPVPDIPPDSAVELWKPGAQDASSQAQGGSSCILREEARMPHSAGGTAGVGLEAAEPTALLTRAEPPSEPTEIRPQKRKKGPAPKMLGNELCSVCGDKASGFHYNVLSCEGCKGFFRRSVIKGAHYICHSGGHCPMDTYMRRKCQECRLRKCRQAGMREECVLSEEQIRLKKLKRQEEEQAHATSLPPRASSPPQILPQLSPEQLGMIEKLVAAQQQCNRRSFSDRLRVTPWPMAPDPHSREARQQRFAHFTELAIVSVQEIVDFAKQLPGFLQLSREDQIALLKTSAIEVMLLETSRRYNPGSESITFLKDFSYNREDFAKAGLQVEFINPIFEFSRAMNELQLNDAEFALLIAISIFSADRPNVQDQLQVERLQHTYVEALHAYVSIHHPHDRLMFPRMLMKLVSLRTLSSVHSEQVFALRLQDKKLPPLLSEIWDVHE
- Sequence (P19793 whole entry, chain 2 of 2): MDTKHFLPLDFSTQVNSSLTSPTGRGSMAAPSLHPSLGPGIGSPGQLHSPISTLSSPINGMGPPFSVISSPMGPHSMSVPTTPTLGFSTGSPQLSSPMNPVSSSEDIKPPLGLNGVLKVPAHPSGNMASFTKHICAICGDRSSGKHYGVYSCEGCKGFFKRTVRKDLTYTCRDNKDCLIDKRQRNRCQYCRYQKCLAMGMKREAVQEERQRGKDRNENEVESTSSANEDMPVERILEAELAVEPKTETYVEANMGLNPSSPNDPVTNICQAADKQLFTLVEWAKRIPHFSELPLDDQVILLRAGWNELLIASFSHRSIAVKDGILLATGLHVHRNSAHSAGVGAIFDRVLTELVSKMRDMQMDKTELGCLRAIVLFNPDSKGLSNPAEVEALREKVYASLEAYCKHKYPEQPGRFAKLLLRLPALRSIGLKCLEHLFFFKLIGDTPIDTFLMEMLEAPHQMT
- assaySummary: no ligand; PBM; 270 nM : 90 nM RXRa; PBS pH 7.4, 2% milk, 0.02% Triton X-100, 1 mM DTT, BSA, 0.4 mg/ml salmon testes DNA
- condition: tags: His kept;His cleaved; copies: 1;1; label: surface-attached array probe
measuredProperty: binding signal

I have this binder here, NRC3_random_hg19_258_o1 (dsDNA) DNA 1: GCGTAAGATGGCAGGTGCCCAGAGCTAAGCTTTGATGCGATTGACAGCGTAGAATGAAGG DNA 2: CCTTCATTCTACGCTGTCAATCGCATCAAAGCTTAGCTCTGGGCACCTGCCATCTTACGC , and I need its recorded binding signal.
-1 PBM z-score against 500 random probes
